Here, each record is paired with measured IC50 data.
- test-system: amylin receptors (Rattus norvegicus, UniProt P32214)
- Sequence (P32214 25-516): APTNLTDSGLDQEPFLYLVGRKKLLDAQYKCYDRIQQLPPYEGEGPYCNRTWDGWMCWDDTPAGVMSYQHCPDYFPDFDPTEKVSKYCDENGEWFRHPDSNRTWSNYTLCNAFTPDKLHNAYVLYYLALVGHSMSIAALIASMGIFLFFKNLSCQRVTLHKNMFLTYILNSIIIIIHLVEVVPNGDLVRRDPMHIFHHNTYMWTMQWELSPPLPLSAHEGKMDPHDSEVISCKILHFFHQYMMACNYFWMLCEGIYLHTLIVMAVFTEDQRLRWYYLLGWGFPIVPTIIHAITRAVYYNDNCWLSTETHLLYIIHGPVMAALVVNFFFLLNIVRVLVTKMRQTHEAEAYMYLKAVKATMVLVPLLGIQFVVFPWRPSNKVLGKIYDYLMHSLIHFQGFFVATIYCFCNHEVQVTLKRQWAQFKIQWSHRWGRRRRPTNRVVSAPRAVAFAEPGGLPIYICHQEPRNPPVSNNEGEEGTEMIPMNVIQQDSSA
- experiment-description: Binding to rat nucleus accumbens membranes (amylin receptors), displacement of 125I-BH-rat amylin
- experimental-conditions: read-out: Receptor IC50 in nM [mean ± SEM (n)] Amylin

- sequence-string: "LSTAVLGRLSQELHRLQTYPRTNTGSNTY [Compound 6]"
  IC50 (nM): 18.6
- sequence-string: "LSTSVLGRLSQELHRLQTYPRTNTGSNTY [Compound 3]"
  IC50 (nM): 37
